assayed system: TNF-α (Homo sapiens, UniProt P01375)
Sequence (P01375 77-233 limits assumed): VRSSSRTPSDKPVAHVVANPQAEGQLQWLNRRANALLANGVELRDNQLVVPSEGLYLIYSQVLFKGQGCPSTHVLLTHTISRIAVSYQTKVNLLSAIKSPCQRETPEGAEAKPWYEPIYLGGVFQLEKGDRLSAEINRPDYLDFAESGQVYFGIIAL
assay notes: Equilibrium SPR affinity of peptides for captured TNF-α
Format: binding
condition context: equilibrium SPR, TNF-α captured on chip, peptide concentration series; mean ± standard error of several replicates; SEM
Method: Point-variant libraries were prepared in 96-well stock plates as described in the supporting information. […] Sequences containing multiple enhancing point variations were synthesized using standard solid-phase synthesis and purified. Multiple variant affinities were determined with the same protocol used for point-variant affinities. Peptide binding energies and dissociation constants (Kd) were calculated separately as a mean and standard error of all replicate measurements. […]
Where no end group is shown, it is not given here.
Kd strictly under 20 µM means criterion met; at 20 µM or over means criterion not met.

- sequence input: "FERDPLMMPWKFLQSRQGSC [Peptide S11K]"
  assayed system: "TNF-α (Homo sapiens, UniProt P01375)"
  category: "criterion not met"
- sequence input: "FERSYLKMPWSFLQSRQGSC [D4S+P5Y+M7K]"
  assayed system: "TNF-α (Homo sapiens, UniProt P01375)"
  category: "criterion met"
- sequence input: "FERSYLMMPWKFLQSRQGSC [D4S+P5Y+S11K]"
  assayed system: "TNF-α (Homo sapiens, UniProt P01375)"
  category: "criterion met"
- sequence input: "FERDYLMMPWKFLQSRQGSC [P5Y+S11K]"
  assayed system: "TNF-α (Homo sapiens, UniProt P01375)"
  category: "criterion not met"
- sequence input: "FERDYLKMPWSFLQSRQGSC [P5Y+M7K]"
  assayed system: "TNF-α (Homo sapiens, UniProt P01375)"
  category: "criterion not met"
- sequence input: "FERYPLMMPWKFLQSRQGSC [D4Y+S11K]"
  assayed system: "TNF-α (Homo sapiens, UniProt P01375)"
  category: "criterion met"
